Values from paper PMC9317670

Tested on: T.b. brucei
Test: T.b. brucei temporal viability (time-kill) assay, 48 h, PrestoBlue
Format: cell-based, Trypanosoma brucei brucei
Conditions: Trypanosoma brucei, read-out: Emax 48 h T.b. brucei (converted)
Give Emax for every item shown.
Just the number in %, nothing appended.

Which Emax value is on record for C[C@@H]1[C@H](O)[C@@H](C)/C=C/C=C/C=C/C=C/C=C/C=C/C=C/[C@H](O[C@@H]2O[C@H](C)[C@@H](O)[C@H](N)[C@@H]2O)C[C@@H]2O[C@](O)(C[C@@H](O)C[C@@H](O)[C@H](O)CC[C@@H](O)C[C@@H](O)CC(=O)O[C@H]1C)C[C@H](O)[C@H]2C(=O)O [Amphotericin B, reference compound] ?
100

Entry COc1ccc(C[C@H](N)C(=O)N[C@H]2[C@@H](O)[C@H](n3cnc4c(N(C)C)ncnc43)O[C@@H]2CO)cc1 [Puromycin, reference compound] : reported Emax = ?
100

Requested read-out: Emax. Entry: N=C(N)c1ccc(/N=N/Nc2ccc(C(=N)N)cc2)cc1 [Diminazene aceturate, reference compound]
100

Any idea what its Emax is? The compound is CCc1ccccc1-n1c(C)cn2c3c(=O)n(C(C(=O)OC)C(C)C)c(=O)n(C)c3nc12 (centres unmarked)
99

Entry N=C(N)c1ccc(OCCCCCOc2ccc(C(=N)N)cc2)cc1 [Pentamidine, reference compound] has what Emax?
100

Looking for the measured Emax of O=C(NCCc1ccn(-c2ccccc2)n1)C1CCCCC1 , can you help?
99

Look at this compound and give its reported Emax. O=C(Nc1ccc2c(c1)B(O)OC2)c1ccccc1C(F)(F)F
100

Fill in: Emax of CC1CCCCN1C(=O)NCCc1coc(-c2ccc(F)cc2)n1 (centres unmarked) is ___
99

Requested field: Emax. Item: COc1ccc(S(=O)(=O)Nc2ccc(CN3CCN(C(=O)c4cccc(C#N)c4)CC3)cc2)cc1
100

# query: Emax of entry O=C(NCc1nnc2n1CCCCC2)c1ccc(-c2ccc(F)cc2)o1
100

Look up Emax: Cc1ccc(S(=O)(=O)Nc2ccc(CN3CCN(C(=O)c4cccc(C#N)c4)CC3)cc2)cc1
99

---

Tested on: T.b. brucei
Assay: T.b. brucei temporal viability (time-kill) assay, 24 h, PrestoBlue
Type: cell-based, Trypanosoma brucei brucei
Conditions: read-out: IC50 24 h T.b. brucei
pIC50: −log10 of the molar value.
Classification field: enter fulfilled for pIC50 values not below 6, not fulfilled for values below it.

Does CN1CCN(S(=O)(=O)c2ccc(-c3ccc4c(Nc5ncc(Cl)cn5)ccnc4c3)cc2)CC1 [MMV 688283] have a reported pIC50 of at least 6?
not fulfilled

Say whether O=C(Nc1ccc(F)c(-c2nc3ncc(-c4ccccc4)cc3[nH]2)c1)N1CCCC1 [MMV 688372] shows pIC50 of 6 or more.
fulfilled

I'd appreciate it if you could say whether Cc1cc(C2=NOC(c3cc(Cl)c(F)c(Cl)c3)(C(F)(F)F)C2)ccc1C(=O)NCc1ccc2c(c1)C(C)(C)OB2O (centres unmarked) [MMV 687776] has pIC50 at least equal to 6.
not fulfilled

---

Test system: HEPG2 cells
Assay: HEPG2 cytotoxicity assay
Assay type: cell-based, human
Settings: Homo sapiens, HepG2, 72 h, read-out: IC50 (HEP)
reported-property: IC50 (µM)
Numeric only. Scale: µM

# query: IC50 | item Nc1nc2ccc(-c3cncc(Oc4ccc(F)cc4)c3)cc2[nH]1 | system: HEPG2 cells
19.6
